assay: inhibitors of hydroxyurea-induced Chk1 phosphorylation, primary screen, imaging, HeLa, phospho-Chk1 nuclear intensity (AID 1187); conditions: hydroxyurea-induced phospho-Chk1 immunofluorescence imaging, higher = more signal; also: test concentration not given here
The source made the active and inactive calls. No rule for the calls is given here.
Readout Type: z-score

(Q) What does the record list as z-score for `[N-]=[N+]=NCc1ccccc1C[C@]1(C(=O)NCc2ccccc2)N=C(c2ccc(OCCCO)cc2)O[C@H]1c1ccccc1CN=[N+]=[N-]` ?
(A) 0.0031 (inactive)

(Q) Cool, now CCCCC(O)C1C=CC2C(=O)NC(=O)C2N1Nc1ccccn1 (stereo not drawn)
(A) 0.318 (inactive)

(Q) How about `CN1C(=O)[C@]2(CCC(=O)OC(C)(C)C)N=C(c3ccc(OCCCO)cc3)O[C@@H]2c2ccccc21` ?
(A) 0.25 (inactive)

(Q) Another compound to check: `CC(C)CNC(=O)[C@@H]1c2ccccc2C(=O)N(C(C)C)[C@H]1c1ccc(CO)cc1`
(A) -0.784 (inactive)

(Q) Try this compound next: `C=CCOC(=O)[C@@H]1[C@H]2C(=O)O[C@H](c3ccccc3)[C@H](c3ccccc3)N2[C@H](c2ccc(OCCOC(=O)[C@H]3C[C@H]4C(=O)NCC(=O)N4[C@H]3c3ccc(O)cc3)cc2)[C@@]12C(=O)Nc1ccc(I)cc12`
(A) -0.762 (inactive)

(Q) Try this compound too: `C=C(COC)/C(=C/C[C@H](OC(=O)c1ccncc1)c1ccc(OCCO)cc1)c1cc(C(=O)OC)ccc1OC`
(A) 0.159 (inactive)

(Q) Try `CCOC(=O)C1=CC[C@@H](c2ccccc2)N(S(=O)(=O)c2ccc(C)cc2)[C@H]1C#N` next.
(A) 0.373 (inactive)

(Q) Further, for O=C1OCCC=C[C@H]2OC34C=CCN(CCN5CCOCC5)C(=O)[C@H]3N(CCCO)C(=O)[C@@H]4C12 (stereo partly drawn) ?
(A) -0.374 (inactive)
